# Test system: E. coli TESEC Mtb Alr
# Experimental protocol: growth (OD600 after 10 h); higher = more growth (less inhibition)
# Study conditions: arabinose 100000 nM; compound 0.1 mM; raw OD600 reference: median of DMSO wells 0.201, cell-free background 0.041
Structures can show the parent of a compound that is named as a salt.
# growth annotations
Just the number, please, no unit after it.

# count of solved cases: 2
- Compound: "COc1ccc(CN(CCN(C)C)c2ccccn2)cc1 [Pyrilamine maleate]"
  Metric: "growth"
  Endpoint result: 0.179
- Compound: "CCCC1C(=O)N2C(N(C)C)=Nc3ccc(C)cc3N2C1=O (centres undefined)"
  Metric: "growth"
  Endpoint result: 0.178

Proceeding to the next compound to report its growth.
The compound listed as O=c1cc(-c2ccc(O)c(O)c2)oc2cc(O)cc(O)c12 has a reported growth of 0.0523

* * *

# Tested on: E. coli TESEC Mtb Alr
# Experimental protocol: growth (OD600 after 10 h); higher = more growth (less inhibition)
# Study conditions: arabinose 100 nM; compound 0.1 mM; raw OD600 reference: median of DMSO wells 0.413, cell-free background 0.052
Structures can show the parent of a compound that is named as a salt.
# growth annotations
Just the number, please, no unit after it.

# count of solved cases: 6
- Molecule: "CC(=O)[C@H]1CC[C@H]2[C@@H]3CC=C4C[C@@H](O)CC[C@]4(C)[C@H]3CC[C@]12C [Pregnenolone]"
  growth: 0.398
- Molecule: "CCOC(=O)OC(C)OC1=C(C(=O)Nc2ccccn2)N(C)S(=O)(=O)c2ccccc21 (configuration not stated) [Ampiroxicam]"
  growth: 0.415
- Molecule: "O=C(c1ccc(F)cc1)C1CCN(CCn2c(=O)[nH]c3ccccc3c2=O)CC1 [Ketanserin tartrate hydrate]"
  growth: 0.407
- Molecule: "CO/N=C(\\C(=O)N[C@@H]1C(=O)N2C(C(=O)O)=C(COC(C)=O)CS[C@H]12)c1csc(N)n1 [Cefotaxime sodium salt]"
  growth: 0.0466
- Molecule: "COc1cc([C@@H]2c3cc4c(cc3[C@@H](O[C@@H]3O[C@@H]5CO[C@@H](C)O[C@H]5[C@H](O)[C@H]3O)[C@H]3COC(=O)[C@H]23)OCO4)cc(OC)c1O [Etoposide]"
  growth: 0.129
- Molecule: "CCN(CC)CC(=O)Nc1c(C)cccc1C [Lidocaine hydrochloride]"
  growth: 0.41

CC(C)(O/N=C(\C(=O)N[C@@H]1C(=O)N2C(C(=O)[O-])=C(C[n+]3ccccc3)CS[C@H]12)c1csc(N)n1)C(=O)O [Ceftazidime pentahydrate] on E. coli TESEC Mtb Alr gives growth = 0.0467

* * *

# Test system: E. coli TESEC Mtb DapB
# Experimental protocol: growth (OD600 after 10 h); higher = more growth (less inhibition)
# Study conditions: arabinose induction (level): Low; compound 0.1 mM; raw OD600 reference: median of DMSO wells 0.227, cell-free background 0.041
Structures can show the parent of a compound that is named as a salt.
# if value of growth reaches 0.2, tag T; if it stays below, tag F

- Compound: "CCCCN(CCCC)CCCOC(=O)c1ccc(N)cc1"
  Assigned category: "T"
- Compound: "CSc1ccc2c(c1)N(CCC1CCCCN1C)c1ccccc1S2 (stereo not drawn) [Thioridazine hydrochloride]"
  Assigned category: "F"
- Compound: "NCCC[C@H](N)CC(=O)N[C@H]1CNC(=O)[C@H]([C@H]2C[C@H](O)NC(N)=N2)NC(=O)/C(=C/NC(N)=O)NC(=O)[C@H](CO)NC(=O)[C@H](CO)NC1=O [Viomycin sulfate]"
  Assigned category: "T"

Would you say CC(=O)Oc1ccc(C(c2ccc(OC(C)=O)cc2)c2ccccn2)cc1 shows growth at minimum 0.2? T

Would you say CCS(=O)(=O)CCn1c([N+](=O)[O-])cnc1C shows growth at minimum 0.2? T

Would you say OC(CCCN1CCCCC1)(c1ccccc1)c1ccccc1 [Diphenidol hydrochloride] shows growth at minimum 0.2? T

* * *

# growth annotations
# Tested on: E. coli TESEC Mtb DapB
# Experimental protocol: growth (OD600 after 10 h); higher = more growth (less inhibition)
# Study conditions: arabinose induction (level): Low; compound 0.1 mM; raw OD600 reference: median of DMSO wells 0.227, cell-free background 0.041
Counter-ions that a name gives are not always drawn.
Just the number, please, no unit after it.

- Compound: "O=C(Cn1ccnc1[N+](=O)[O-])NCCO [Etanidazole]"
  growth: 0.232
- Compound: "Cc1[nH]c(=O)c(C#N)cc1-c1ccncc1 [Milrinone]"
  growth: 0.236
- Compound: "COc1cc(C)c(/C=C/C(C)=C/C=C/C(C)=C/C(=O)O)c(C)c1C [Acitretin]"
  growth: 0.177
- Compound: "Cc1cc(C)nc(NS(=O)(=O)c2ccc(N)cc2)n1 [Sulfamethazine sodium salt]"
  growth: 0.269
- Compound: "CC[C@H](C)C(=O)O[C@H]1C[C@@H](C)C=C2C=C[C@H](C)[C@H](CC[C@@H]3C[C@@H](O)CC(=O)O3)[C@H]21 [Lovastatin]"
  growth: 0.192

The compound listed as C[C@H]1C[C@H]2[C@@H]3CCC4=CC(=O)C=C[C@]4(C)[C@@]3(F)[C@@H](O)C[C@]2(C)[C@@]1(O)C(=O)CO [Betamethasone] has a reported growth of 0.211

The compound listed as CCCCN1CCCCC1C(=O)Nc1c(C)cccc1C (stereo not drawn) [Bupivacaine hydrochloride] has a reported growth of 0.266

The compound listed as CN(C)CC/C=C1/c2ccccc2COc2ccc(CC(=O)O)cc21 [Olopatadine hydrochloride] has a reported growth of 0.233

* * *

# Tested on: E. coli TESEC Mtb Alr
# Experimental protocol: growth (OD600 after 10 h); higher = more growth (less inhibition)
# Study conditions: arabinose 1000000 nM; compound 0.1 mM; raw OD600 reference: median of DMSO wells 0.193, cell-free background 0.041
Structures can show the parent of a compound that is named as a salt.
Metric: growth
Just the number, please, no unit after it.

- Compound: "NC[C@H]1CC[C@H](C(=O)O)CC1"
  Metric: "growth"
  Endpoint result: 0.186

The compound listed as C=C(NC(=O)C(=C)NC(=O)c1csc(C2=N[C@@H]3c4csc(n4)[C@H]4NC(=O)c5csc(n5)[C@H]([C@](C)(O)[C@@H](C)O)NC(=O)[C@H]5CSC(=N5)/C(=C/C)NC(=O)[C@H]([C@@H](C)O)NC(=O)c5csc(n5)[C@]3(CC2)NC(=O)[C@H](C)NC(=O)C(=C)NC(=O)[C@H](C)NC(=O)[C@H]([C@@H](C)CC)N[C@@H]2C=Cc3c([C@H](C)O)cc(nc3[C@H]2O)C(=O)O[C@@H]4C)n1)C(N)=O has a reported growth of 0.185

The compound listed as CC(C)/N=c1\cc2n(-c3ccc(Cl)cc3)c3ccccc3nc-2cc1Nc1ccc(Cl)cc1 has a reported growth of 0.0638

The compound listed as CNNCc1ccc(C(=O)NC(C)C)cc1 [Procarbazine hydrochloride] has a reported growth of 0.177

* * *

# Tested on: E. coli TESEC Mtb Alr
# Experimental protocol: growth (OD600 after 10 h); higher = more growth (less inhibition)
# Study conditions: arabinose 1000 nM; compound 0.1 mM; raw OD600 reference: median of DMSO wells 0.294, cell-free background 0.041
Metric: growth
Just the number, please, no unit after it.

# count of solved cases: 4
- Compound: "C[C@@H](O)[C@H]1C(=O)N2C(C(=O)O)=C(SCCNC=N)C[C@H]12"
  growth: 0.282
- Compound: "C=C(CC)C(=O)c1ccc(OCC(=O)O)c(Cl)c1Cl"
  growth: 0.242
- Compound: "CN/C(=N\\CCSCc1nc[nH]c1C)NC#N"
  growth: 0.295
- Compound: "CS(=O)(=O)OCCCCOS(C)(=O)=O"
  growth: 0.287

The compound listed as NS(=O)(=O)c1cc(Cl)c(Cl)c(S(N)(=O)=O)c1 [Dichlorphenamide] has a reported growth of 0.298

* * *

# growth annotations
# Test system: E. coli TESEC Alr+ wild-type control
# Experimental protocol: growth (OD600 after 10 h); higher = more growth (less inhibition)
# Study conditions: compound 0.1 mM; raw OD600 reference: median of DMSO wells 0.49, cell-free background 0.052
Just the number, please, no unit after it.

# count of solved cases: 2
- Compound: "CC(C)OC(=O)C(C)(C)Oc1ccc(C(=O)c2ccc(Cl)cc2)cc1 [Fenofibrate]"
  growth: 0.469
- Compound: "COc1ccccc1OCC(O)CO (stereo not given)"
  growth: 0.535

Cc1cc(C2CCCCC2)n(O)c(=O)c1 on E. coli TESEC Alr+ wild-type control gives growth = 0.0666

C[C@H]1NC(=O)NC1=O on E. coli TESEC Alr+ wild-type control gives growth = 0.607

Nc1nc2c(ncn2COC(CO)CO)c(=O)[nH]1 on E. coli TESEC Alr+ wild-type control gives growth = 0.473
